# Test Name: BET inhibitor-based combinations targeting novel dependencies in MECOM-rearranged (r) AML: UCSD-AML1 cell line (AID 2202235); further: nearly all actives have a fitted effect of over 40% in size
# Run Parameters: UCSD-AML1 AML cells viability, CellTiter-Glo, 48 h; series mostly up to 46 µM
Results filed as inconclusive are left out. Activity calls are given as the source filed them. The call rests on the fitted dose curve; in most records, active means well fitted inhibition curve with a large enough effect; inconclusive means small, poorly fitted or top-dose-only effect; inactive means no such curve, though single readings can be large or run the other way.
Please answer using one outcome listed in true for active, false for inactive

Compound	Class Name
O=C(Oc1ccc([N+](=O)[O-])cc1)N1CCC(C(O)(c2ccc3c(c2)OCO3)c2ccc3c(c2)OCO3)CC1	false
CNCC(O)c1ccc(O)cc1 (configuration not stated)	false
O=C(O)C(=O)c1cn(Cc2ccccc2)c2ccc(-c3ccc(OC(F)(F)F)cc3)cc12	false
C[C@@H]1O[C@@H](O[C@@H]2C=C3CC[C@@H]4[C@H](CC[C@]5(C)[C@@H](c6ccc(=O)oc6)CC[C@]45O)[C@@]3(C)CC2)[C@H](O)[C@H](O)[C@H]1O	true
C[C@](O)(COc1ccc(C#N)cc1)C(=O)Nc1ccc(C#N)c(C(F)(F)F)c1	false
C=C[C@H]1CN2CCC1C[C@@H]2[C@@H](O)c1ccnc2ccccc12 (some centres not stated)	false

Now for a further compound.
Identify the outcome logged in this assay for the compound shown: O=C1C=CC[C@@H]2[C@H]3CCCN4CCC[C@@H](CN12)[C@@H]34 false

---

# Target Or System: Cellular tumor antigen p53 (Homo sapiens) (UniProt P04637)
# Sequence (P04637 whole entry, looked up): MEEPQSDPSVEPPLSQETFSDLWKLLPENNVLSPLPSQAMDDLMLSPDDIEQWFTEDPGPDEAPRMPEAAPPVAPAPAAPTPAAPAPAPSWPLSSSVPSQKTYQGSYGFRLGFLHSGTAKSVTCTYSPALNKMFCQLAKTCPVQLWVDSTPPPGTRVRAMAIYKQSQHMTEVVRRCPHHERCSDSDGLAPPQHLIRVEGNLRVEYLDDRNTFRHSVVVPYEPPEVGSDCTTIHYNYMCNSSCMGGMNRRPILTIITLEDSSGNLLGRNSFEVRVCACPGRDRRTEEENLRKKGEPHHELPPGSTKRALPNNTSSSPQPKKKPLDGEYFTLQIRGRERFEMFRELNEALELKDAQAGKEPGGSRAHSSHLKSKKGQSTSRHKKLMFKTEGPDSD
# Test Name: Primary qHTS for small molecule compounds that upregulate eGFP-tagged delta133p53alpha (in N-terminal) cells. (AID 2060322);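 further: cells pre-induced with doxycycline then dosed without doxycycline; 0% = DMSO vehicle and 100% = reference activator; nearly all actives have a fitted effect of over 75% in size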
# Run Parameters: NCI-H358 eGFP-delta133p53alpha fluorescence, 24 h; stronger effect = higher value
Results filed as inconclusive are left out.
Exercise: state measured activation for each of the compounds provided.
One number for each entry, in %.

Compound	Result Units	activation
O=C1CC[C@@]2(O)C3Cc4ccc(O)c5c4C2(CCN3CC2CC2)[C@H]1O5 (stereo partly specified)	%	-10.4
O=C1OC(CCN2CCCCC2)OC1(c1ccccc1)c1ccccc1 (stereo unspecified)	%	-20.9
CC1CCCCCC(=O)c2c(O)cc(O)cc2CC(=O)O1 (stereo unspecified)	%	-18.3
CC[C@@H](C(N)=O)N1CCCC1=O	%	0.54
CC1Sc2c(C(=O)O)c(=O)c3cc(F)c(N4CCNCC4)cc3n21 (stereo unspecified)	%	-8.47

May I ask what activation has been recorded for Nc1ccccc1 ? -8.47

---

Exercise: state measured activation for each of the molecules provided.
# Target Or System: Cellular tumor antigen p53 (Homo sapiens)
# Test Name: Primary qHTS for small molecule compounds that upregulate eGFP-tagged delta133p53alpha (in N-terminal) cells. (AID 2060322);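 further: cells pre-induced with doxycycline then dosed without doxycycline; 0% = DMSO vehicle and 100% = reference activator; nearly all actives have a fitted effect of over 75% in size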
# Run Parameters: NCI-H358 eGFP-delta133p53alpha fluorescence, 24 h; stronger effect = higher value
Records with an inconclusive call do not appear.
Give bare numbers, in %.

Past entries and their recorded results:
Molecule	Target Or System	Result Units	activation
CC[C@@H]1C[C@H]2CC[C@H](O2)[C@H](C)C(=O)O[C@@H](C)C[C@@H]2CC[C@@H](O2)[C@@H](C)C(=O)O[C@H](C)C[C@H]2CC[C@H](O2)[C@H](C)C(=O)O[C@@H](C)C[C@@H]2CC[C@@H](O2)[C@@H](C)C(=O)O1	Cellular tumor antigen p53 (Homo sapiens)	%	-13.7
CC(=O)O[C@H]1C[C@@H](OC(C)=O)C(C)(C)C2C[C@@H](O)[C@]3(C)C(CC[C@@]4(C)[C@H](C5=CC(=O)OC5O)C[C@H]5O[C@]543)[C@]21C (stereo partly drawn)	Cellular tumor antigen p53 (Homo sapiens)	%	-6.87
N#CC(O[C@@H]1O[C@H](CO)[C@@H](O)[C@H](O)[C@H]1O)c1ccccc1 (stereo partly drawn)	Cellular tumor antigen p53 (Homo sapiens)	%	13

For every record below, what is its activation?
1. CN(C)c1cc2c(cc1Sc1nc3c(N)nccc3n1CCNCC(C)(C)C)OCO2
2. CC(C)(C)C(O)C(Oc1ccc(Cl)cc1)n1cncn1 (stereo not drawn)
3. CC1=C(C(=O)O)N2C(=O)[C@@H](N)[C@H]2SC1

1: 5.25; 2: 10.7; 3: -3.35

For every record below, what is its activation?
1. c1ccc(N2CCNCC2)cc1
2. CCCN1CC[C@@H]2c3cc(O)ccc3CC[C@@H]21

[-33.3, -3.44]

Sourced from PubChem BioAssay (NCATS)
